The following molecules are listed with their measured GI50 values.
System: SR leukemia
Assay Text: NCI tumour cell line growth inhibition, 48 h

# Molecule, Experimental Target, GI50
data = [
    ("O[C@H]1CO[C@H]2[C@@H]1OC[C@@H]2Oc1ccc(Nc2ccnc(Nc3ccc(O[C@H]4CO[C@H]5[C@@H]4OC[C@@H]5O)c(Cl)c3)n2)cc1Cl", "SR leukemia", "2.28 µM"),
    ("Cc1cc(N/N=C/c2nc(-c3ccc(Br)cc3)oc2C)c2cc(Cl)ccc2n1", "SR leukemia", "> 100 µM"),
    ("O=S(=O)(NCCNC/C=C/c1ccc(Br)cc1)c1cccc2cnccc12", "SR leukemia", "13.6 µM"),
    ("O=C(C1CCCCC1)[C@@H]1[C@]2(C(=O)NC3CCCCC32)[C@@H]2CCCN2[C@@]12C(=O)NC1CCC(Cl)CC12 (some centres undefined)", "SR leukemia", "30.8 µM"),
]
